- TESTED_ON: progesterone receptor-B (Homo sapiens, UniProt P06401)
- Sequence (P06401 whole entry): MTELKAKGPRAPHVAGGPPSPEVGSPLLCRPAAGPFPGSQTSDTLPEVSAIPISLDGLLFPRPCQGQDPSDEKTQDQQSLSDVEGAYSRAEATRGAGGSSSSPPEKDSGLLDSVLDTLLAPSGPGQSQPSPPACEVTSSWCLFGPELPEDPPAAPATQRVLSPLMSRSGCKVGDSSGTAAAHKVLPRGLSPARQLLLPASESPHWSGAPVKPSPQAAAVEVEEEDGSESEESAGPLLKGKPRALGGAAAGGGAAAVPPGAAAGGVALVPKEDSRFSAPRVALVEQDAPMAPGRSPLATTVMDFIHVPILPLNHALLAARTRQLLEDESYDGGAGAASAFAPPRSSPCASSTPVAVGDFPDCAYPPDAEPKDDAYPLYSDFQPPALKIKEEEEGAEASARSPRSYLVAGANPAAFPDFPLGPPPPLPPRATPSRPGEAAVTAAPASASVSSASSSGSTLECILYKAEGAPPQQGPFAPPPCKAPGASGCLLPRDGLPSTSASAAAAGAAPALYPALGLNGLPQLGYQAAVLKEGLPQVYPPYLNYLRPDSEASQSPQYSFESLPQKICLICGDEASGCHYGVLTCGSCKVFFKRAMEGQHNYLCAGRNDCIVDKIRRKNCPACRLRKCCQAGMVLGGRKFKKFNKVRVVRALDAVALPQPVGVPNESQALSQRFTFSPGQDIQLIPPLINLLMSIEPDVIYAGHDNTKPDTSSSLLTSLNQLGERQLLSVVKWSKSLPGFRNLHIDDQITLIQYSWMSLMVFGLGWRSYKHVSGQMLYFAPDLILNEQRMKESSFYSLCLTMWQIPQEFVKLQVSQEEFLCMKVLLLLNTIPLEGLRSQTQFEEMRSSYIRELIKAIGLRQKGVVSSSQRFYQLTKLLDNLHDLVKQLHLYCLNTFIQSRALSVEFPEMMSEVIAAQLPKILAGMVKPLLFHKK
- EXPERIMENTAL_PROTOCOL: Progesterone receptor-B transactivation, agonistic mode (CHO cells, luciferase)
- Format: cell-based
- EXPERIMENTAL_CONTEXT: CHO, intrinsic agonistic activity, relative to reference (16α)-16-ethyl-21-hydroxy-19-norpregn-4-ene-3,20-dione; read-out: PRBago Eff (%)
In this section, each of the compounds is paired with its reported Emax.
Output spec: scalar in %, unitless text.

Would you please look over these solved cases?
C[C@]12C[C@H](c3ccc(-c4cccnc4)cc3)C3=C4CCC(=O)C=C4CC[C@H]3[C@@H]1CC[C@]2(C)C(=O)C1CC1 | 37.5
C[C@@H]1C[C@H]2[C@@H]3CCC4=CC(=NO)CCC4=C3[C@@H](c3ccc(-c4cccnc4)cc3)C[C@]2(C)[C@H]1C(=O)C1CC1 | 43
C[C@@H]1C[C@H]2[C@@H]3CCC4=CC(=O)CCC4=C3[C@@H](c3ccc(-c4cccnc4)cc3)C[C@]2(C)[C@H]1C(=O)C1CC1 | 49.2

Next item in the queue.
May I ask what Emax has been recorded for COc1ccc(-c2ccc([C@H]3C[C@]4(C)[C@@H](C(=O)C5CC5)CC[C@H]4[C@@H]4CCC5=CC(=O)CCC5=C43)cc2)cn1 ?
28.3

* * *

Reported pEC50 values are given for each entry in this list.
- TESTED_ON: progesterone receptor-B (Homo sapiens, UniProt P06401)
- EXPERIMENTAL_PROTOCOL: Progesterone receptor-B transactivation, agonistic mode (CHO cells, luciferase)
- Format: cell-based
- EXPERIMENTAL_CONTEXT: CHO cells, agonistic mode; read-out: PRBagoEC50
// returns pEC50 (minus log10 of molar concentration), number only

These solved cases illustrate the format of a correct answer.
C=C[C@@H]1C[C@H]2[C@@H]3CCC4=CC(=O)CCC4=C3[C@@H](c3ccc(-c4cccnc4)cc3)C[C@]2(C)[C@H]1C(=O)C1CC1 | 9.18
C[C@@H]1C[C@H]2[C@@H]3CCC4=CC(=O)CCC4=C3[C@@H](c3ccc(-c4ncccn4)cc3)C[C@]2(C)[C@H]1C(=O)C1CC1 | 8.60

Moving on to another molecule below.
Which pEC50 is listed for C[C@@H]1C[C@H]2[C@@H]3CCC4=CC(=NO)CCC4=C3[C@@H](c3ccc(-c4cccnc4)cc3)C[C@]2(C)[C@H]1C(=O)C1CC1 ?
9.19

* * *

# Emax listing for each entry below
- TESTED_ON: progesterone receptor-B (Homo sapiens, UniProt P06401)
- EXPERIMENTAL_PROTOCOL: Progesterone receptor-B transactivation, antagonistic mode (inhibition of luciferase transactivation by inducer, CHO cells)
- Format: cell-based
- EXPERIMENTAL_CONTEXT: CHO; intrinsic antagonistic activity, percentage of effect of standard antagonist (6β,11β,17β)-11-[4-(dimethylamino)phenyl]-4′,5′-dihydro-6-methylspiro[estra-4,9-diene-17,2′(3′H)-furan]-3-one; 0.1 nM inducer; read-out: PRBant Eff (%)
Give a bare numeral; the unit % is implied.

C[C@@H]1C[C@H]2[C@@H]3CCC4=CC(=O)CCC4=C3[C@@H](c3ccc(-c4ccccn4)cc3)C[C@]2(C)[C@H]1C(=O)C1CC1 [Example 10] | 32.5

I'd like to know its Emax. The compound in question is C[C@@H]1C[C@H]2[C@@H]3CCC4=CC(=NO)CCC4=C3[C@@H](c3ccc(-c4cccnc4)cc3)C[C@]2(C)[C@H]1C(=O)C1CC1 [Example 22]
32

Quick check: Emax of C[C@@H]1C[C@H]2[C@@H]3CCC4=CC(=O)CCC4=C3[C@@H](c3ccc(-c4cccnc4)cc3)C[C@]2(C)[C@H]1C(=O)C1CC1 [Example 1] ?
46.4

Cited source: patent US7691836B2
